Target: T1, human nectin-4 on cells (human, UniProt Q96NY8 32-510)
T1 construct: also called Nectin-4 receptor
T1 sequence: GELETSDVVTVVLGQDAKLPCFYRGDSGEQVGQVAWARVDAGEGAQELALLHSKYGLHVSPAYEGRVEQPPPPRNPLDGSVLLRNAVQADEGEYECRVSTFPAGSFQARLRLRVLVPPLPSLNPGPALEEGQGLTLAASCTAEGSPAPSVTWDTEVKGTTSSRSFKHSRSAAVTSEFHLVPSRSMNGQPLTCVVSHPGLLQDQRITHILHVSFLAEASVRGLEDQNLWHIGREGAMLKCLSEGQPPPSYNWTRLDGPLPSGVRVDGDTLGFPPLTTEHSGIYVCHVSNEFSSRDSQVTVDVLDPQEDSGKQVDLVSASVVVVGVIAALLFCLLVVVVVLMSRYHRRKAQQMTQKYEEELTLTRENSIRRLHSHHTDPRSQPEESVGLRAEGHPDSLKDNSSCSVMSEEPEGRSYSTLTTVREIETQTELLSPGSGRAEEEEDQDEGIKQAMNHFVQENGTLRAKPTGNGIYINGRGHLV
Assay: flow cytometry, SUM190PT cells (high endogenous nectin-4)
Answer each item with its documented Average Max MFI.

Record summary for Ab3 (antibody, human IgG1, kappa, L234A L235A, V domains shown, Unconjugated antibody; also called Antibody 3; nectin-4 antibody Ab3) VH: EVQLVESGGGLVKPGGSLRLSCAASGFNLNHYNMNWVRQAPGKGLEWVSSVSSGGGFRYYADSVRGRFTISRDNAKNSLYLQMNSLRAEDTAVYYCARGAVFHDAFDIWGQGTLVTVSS VL: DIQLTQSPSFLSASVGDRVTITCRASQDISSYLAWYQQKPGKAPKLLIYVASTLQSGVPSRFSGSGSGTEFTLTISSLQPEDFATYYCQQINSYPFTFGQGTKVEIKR : reported Average Max MFI = 1.2e+06 MFI

Query Ab8 (antibody, human IgG1, lambda, L234A L235A, V domains shown, Unconjugated antibody; also called Antibody 8; nectin-4 antibody Ab8) VH: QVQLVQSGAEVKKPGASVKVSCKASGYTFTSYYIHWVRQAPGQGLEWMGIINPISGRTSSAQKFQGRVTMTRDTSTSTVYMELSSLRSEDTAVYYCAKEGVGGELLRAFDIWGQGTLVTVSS VL: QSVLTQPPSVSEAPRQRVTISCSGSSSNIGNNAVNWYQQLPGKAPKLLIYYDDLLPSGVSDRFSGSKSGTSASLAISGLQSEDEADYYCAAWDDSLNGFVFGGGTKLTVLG yields Average Max MFI of 8.7e+06 MFI
